Please respond with reported viability for every item in the list.
- assay info: HUVEC growth inhibition – cell-based, human, primary screen (AID 575);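 note: 100% = median of untreated cell wells with 0.1% DMSO on each plate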
- condition notes: HUVEC proliferation, CellTiter-Glo luminescence, 72 h; at 10 µM; hits give low values
One number for each entry, in %.

Past entries and their recorded results:
>  <molecule>
CCCN1CCN(CCCNC(=O)Cn2ncc3c4ccccc4n(C)c3c2=O)CC1

>  <viability (%)>
101

$$$$
>  <molecule>
CCOC(=O)C1=C(C)NC(=O)NC1c1ccc(Br)s1 (stereo unspecified)

>  <viability (%)>
103

$$$$

Answer for every listed entry: what is its viability? The entries follow.
1. Cc1cccc(Cn2c(SCCN3CCCCC3)nc3c2c(=O)[nH]c(=O)n3C)c1
2. CC12CN3CC(C)(CN(C1)C3c1ccc(Cl)cc1Cl)C2=O (stereo unspecified)
3. CC1(C)Oc2ccc3ccc(=O)oc3c2C(N2CCCCC2)C1O (stereo unspecified)
4. Cc1ccc(-c2nc3cc(NC(=O)C(C)C)ccc3o2)cc1

Reply text:
1. 75.6
2. 101
3. 89.6
4. 73.5
